Origin of measurements: paper PMC9646970

EXPERIMENTAL PROTOCOL: Population pharmacokinetic analysis
Type: in vivo, broiler chickens
CONDITION NOTES: Ross hybrid (Cornish × Plymouth Rock), plasma, iv, 10 mg/kg, AUCi.v. – cyclosporine A, geometric mean; enrofloxacin i.v. 10 mg/kg + cyclosporine A p.o. 50 mg/kg
METRIC NAME: AUC (ng·h/mL)
State the answer as a number, implicitly in ng·h/mL.

Q: What AUC value was documented for this molecule, CCN1CCN(c2cc3c(cc2F)c(=O)c(C(=O)O)cn3C2CC2)CC1 ?
A: 16200

###

Type: in vivo, broiler chickens
CONDITION NOTES: Ross hybrid (Cornish × Plymouth Rock), plasma, po, 20 mg/kg, Tmax, enrofloxacin in plasma; enrofloxacin p.o. 20 mg/kg + cyclosporine A p.o. 50 mg/kg; geometric mean (min–max)
METRIC NAME: Tmax (h)
Record the value in h, omitting the unit from your answer.

Q: Dear colleague, I am looking for the recorded Tmax of the following molecule: CCN1CCN(c2cc3c(cc2F)c(=O)c(C(=O)O)cn3C2CC2)CC1
A: 1.35
